# TEST_NAME: Clearance in Sprague-Dawley rat at 1 mg/kg, iv measured for 24 hrs by LC-MS/MS analysis
# Assay type: ADME, organism-based
# PARTICULARS: in vivo
REPORTED_ENDPOINT: clearance (mL/min/kg)
Express your answer in mL/min/kg, writing the number without its unit.

State, in one line, measured clearance of CCN1CCN(c2ccc(C(=O)Nc3cc(-c4ccc5ncn(Cc6c(Cl)cccc6Cl)c5c4)[nH]n3)cc2)CC1
40.2

---

# TEST_NAME: Half life in Sprague-Dawley rat at 10 mg/kg, po measured for 24 hrs by LC-MS/MS analysis
# Assay type: ADME, organism-based
# PARTICULARS: in vivo
REPORTED_ENDPOINT: half-life
Reply with the number, then its unit.

State, in one line, measured half-life of CCN1CCN(c2ccc(C(=O)Nc3cc(-c4ccc5ncn(Cc6c(Cl)cccc6Cl)c5c4)[nH]n3)cc2)CC1
3.58 h

Value source: ChEMBL document CHEMBL5226341
